Data credit: the C3SDB collision cross section collection

Conditions: [M-H]-; instrument: DT; single field, calibrated with ESI Low Concentration Tuning Mix (Agilent)
Measured collision cross section (N2) accompanies every entry in the list below.
Metric Name: collision cross section (N2) (Å²)

[[record]]
compound = "CC[C@H](NC(=O)CC[C@H]([NH3+])C(=O)[O-])C(=O)NCC(=O)[O-] [OPHTHALMATE]"
assay_result = 160.9

[[record]]
compound = "O=C(O)c1ccc([O-])c(O)c1 [3,4-DIHYDROXYBENZOATE]"
assay_result = 122.5

[[record]]
compound = "CN[C@H](CC(=O)O)C(=O)O [N-METHYLASPARTATE]"
assay_result = 124

[[record]]
compound = "C[C@H](O)[C@H](N)C(=O)O"
assay_result = 119.3

[[record]]
compound = "C[C@H](CCC(=O)O)[C@H]1CC[C@H]2[C@@H]3[C@@H](O)C[C@@H]4C[C@H](O)CC[C@]4(C)[C@H]3CC[C@]12C [URSODEOXYCHOLATE]"
assay_result = 200.9

[[record]]
compound = "O=C(O)C(CO)OP(=O)(O)O (centres undefined) [2-PHOSPHOGLYCERATE]"
assay_result = 124.2

[[record]]
compound = "NC(CS(=O)(=O)O)C(=O)O (centres undefined) [CYSTEATE]"
assay_result = 123

[[record]]
compound = "Nc1nc(=O)c2ncn([C@@H]3O[C@H](COP(=O)(O)O)[C@@H](O)[C@H]3O)c2[nH]1 [GUANOSINE MONOPHOSPHATE]"
assay_result = 169.4

[[record]]
compound = "COc1cc(/C=C/C(=O)O)ccc1O [FERULATE]"
assay_result = 139.8


---

Details: [M+H]+; instrument: DT; stepped-field
Metric Name: collision cross section (N2) (Å²)

[[record]]
compound = "N[C@@H](Cc1ccc(O)cc1)C(=O)O [L-Tyrosine]"
assay_result = 146.45

[[record]]
compound = "CSCC[C@H](N)C(=O)O [L-Methionine]"
assay_result = 134.08

[[record]]
compound = "NC(N)=NCCC[C@H](N)C(=O)O [L-Arginine]"
assay_result = 136.84


---

Measured collision cross section (N2) accompanies every entry in the list below.
Details: [M+Na]+; instrument: TW; calibrated with phosphatidylcholines (ESI+) and phosphatidylethanolamines (ESI-)
Metric Name: collision cross section (N2) (Å²)

[[record]]
compound = "CCCCCCCCC=CCC=CCC=CCC(=O)OC[C@H](CO[C@@H]1O[C@H](CO[C@H]2O[C@H](CO)[C@H](O)C(O)C2O)[C@H](O)C(O)C1O)OC(=O)CC=CCC=CCC=CCCCCCCCC (some centres undefined)"
unit_annotation = "Å²"
assay_result = 301.9

[[record]]
compound = "CCCCCC/C=C\\CCCCCCCCCC(=O)OC(COC(=O)CCCCCCCCCCCCCCC)CO[C@@H]1O[C@@H](C(=O)O)[C@H](O)[C@H](O)[C@H]1O (some centres undefined)"
unit_annotation = "Å²"
assay_result = 288.1

[[record]]
compound = "CCCCCCCCCCCCCCCC(=O)OCC(CO[C@@H]1O[C@@H](C(=O)O)[C@H](O)[C@H](O)[C@H]1O)OC(=O)CCCCCCCCCCCCCCC (some centres undefined)"
unit_annotation = "Å²"
assay_result = 282.6

[[record]]
compound = "CCCCCCCCCCCCCC=CCC(=O)OC[C@H](CO[C@@H]1O[C@H](CO[C@H]2O[C@H](CO)[C@H](O)C(O)C2O)[C@H](O)C(O)C1O)OC(=O)CC=CCCCCCCCCCCCCC (some centres undefined) [DGDG(16:0/18:2)]"
unit_annotation = "Å²"
assay_result = 306.5


---

Conditions: [M+H]+; instrument: DT; single field, calibrated with Agilent tune mix (Agilent)
Measured collision cross section (N2) accompanies every entry in the list below.
Metric Name: collision cross section (N2)

[[record]]
compound = "Cc1ncc(CO)c(CN)c1O"
assay_result = "134 Å²"

[[record]]
compound = "NCC(=O)N1CCCC1C(=O)O (stereo unspecified)"
assay_result = "136.4 Å²"

[[record]]
compound = "NC(CSCC[C@H](N)C(=O)O)C(=O)O (stereo partly specified)"
assay_result = "146.7 Å²"

[[record]]
compound = "O=c1cc[nH]c(=O)[nH]1"
assay_result = "118.5 Å²"

[[record]]
compound = "N[C@@H](Cc1ccc(O)cc1)C(=O)O"
assay_result = "145.7 Å²"

[[record]]
compound = "Cn1cnc2[nH]c(=O)[nH]c(=O)c21"
assay_result = "130.8 Å²"

[[record]]
compound = "NC(Cc1ccccc1O)C(=O)O (racemic)"
assay_result = "141.4 Å²"

[[record]]
compound = "CCCCCCCCCCCCC=CC[C@@H](O)[C@H](COP(=O)([O-])OCC[N+](C)(C)C)NC(=O)CCCCCCCCCCCCCCCCC"
assay_result = "290.2 Å²"

[[record]]
compound = "N[C@@H](CCC(=O)N[C@@H](Cc1ccccc1)C(=O)O)C(=O)O"
assay_result = "168.2 Å²"

[[record]]
compound = "NC(=O)c1ccc[n+]([C@@H]2O[C@H](COP(=O)([O-])OP(=O)(O)OC[C@H]3O[C@@H](n4cnc5c(N)ncnc54)[C@H](O)[C@@H]3O)[C@@H](O)[C@H]2O)c1 [Nicotinamide adenine dinucleotide (NAD)]"
assay_result = "226.7 Å²"

[[record]]
compound = "CCCCCCCC/C=C\\CCCCCCCC(=O)SCCNC(=O)CCNC(=O)[C@H](O)C(C)(C)COP(=O)(O)OP(=O)(O)OC[C@H]1O[C@@H](n2cnc3c(N)ncnc32)[C@H](O)[C@@H]1OP(=O)(O)O"
assay_result = "299.4 Å²"

[[record]]
compound = "COC1=C(OC)C(=O)C(C/C=C(\\C)CCC=C(C)C)=C(C)C1=O"
assay_result = "174.3 Å²"

[[record]]
compound = "NCCC(=O)N[C@@H](Cc1cnc[nH]1)C(=O)O"
assay_result = "151 Å²"

[[record]]
compound = "CC(=O)NCCc1c[nH]c2ccc(O)cc12"
assay_result = "149.8 Å²"

[[record]]
compound = "CC(=O)[C@@]1(O)CC[C@H]2[C@@H]3CCC4=CC(=O)CC[C@]4(C)[C@H]3CC[C@@]21C [17alpha-Hydroxyprogesterone]"
assay_result = "183.4 Å²"

[[record]]
compound = "CC(O)C(=O)SC[C@H](NC(=O)CC[C@H](N)C(=O)O)C(=O)NCC(=O)O (stereo partly specified)"
assay_result = "187.7 Å²"


---

Details: [M+H]+; instrument: TW; calibrated with polyalanine and drug standards
Binary classification by collision cross section (N2), with 200 Å² as an inclusive lower bound for y; all other cases are n.

[[record]]
molecule = "COC1=CC(=O)C(C(=O)c2ccccc2)=CC1=O [2-BENZOYL-5-METHOXYBENZOQUINONE]"
qualitative_label = "n"

[[record]]
molecule = "COc1cc2oc3cc(OC)c(OC)c(CC=C(C)C)c3c(=O)c2c(O)c1CC=C(C)C [1-HYDROXY-3,6,7-TRIMETHOXY-2,8-DIPRENYLXANTHONE]"
qualitative_label = "y"

[[record]]
molecule = "CCOc1ccc(NC(=O)CC(C)O)cc1 (stereo not drawn) [BUCETIN]"
qualitative_label = "n"

[[record]]
molecule = "O=c1c(O)c(-c2ccccc2)oc2cc(O)cc(O)c12 [GALANGIN]"
qualitative_label = "n"

[[record]]
molecule = "CC(=O)O[C@H]1C[C@@H](OC(C)=O)C(C)(C)C2CC(=O)[C@]3(C)C(CC[C@@]4(C)[C@H](c5ccoc5)OC(=O)[C@H]5O[C@]543)[C@]21C (stereo partly drawn) [7-DEACETOXY-7-OXOKHIVORIN]"
qualitative_label = "y"

[[record]]
molecule = "O=C(O)c1cccnc1 [NIACIN]"
qualitative_label = "n"

[[record]]
molecule = "C[C@@H]1O[C@@H](OC[C@H]2OC(Oc3c(-c4ccc(O)c(O)c4)oc4cc(O)cc(O)c4c3=O)[C@H](O)[C@@H](O)[C@@H]2O)[C@H](O)[C@H](O)[C@H]1O (stereo partly drawn) [RUTOSIDE (rutin)]"
qualitative_label = "y"

[[record]]
molecule = "CCCOc1ccccc1-c1nc2[nH][nH]nc-2c(=O)n1 [ZAPRINAST]"
qualitative_label = "n"

[[record]]
molecule = "CC(=O)Nc1ccc(OC(=O)c2ccccc2O)cc1 [ACETAMINOSALOL]"
qualitative_label = "n"

[[record]]
molecule = "Nc1ccc(S(=O)(=O)Nc2ccc(Cl)nn2)cc1 [SULFACHLORPYRIDAZINE]"
qualitative_label = "n"

[[record]]
molecule = "Cc1ccnc(NS(=O)(=O)c2ccc(N)cc2)n1 [SULFAMERAZINE]"
qualitative_label = "n"

[[record]]
molecule = "S=c1nc[nH]c2nc[nH]c12 [MERCAPTOPURINE]"
qualitative_label = "n"

[[record]]
molecule = "COC(=O)N=N/C=C1\\C=[N+]([O-])c2ccccc2N1O [CARBADOX]"
qualitative_label = "n"

[[record]]
molecule = "C=CCc1ccccc1OCC(O)CNC(C)C (stereo not drawn) [ALPRENOLOL]"
qualitative_label = "n"

[[record]]
molecule = "CC(=O)Nc1ccc(OC(C)=O)cc1 [DIACETAMATE]"
qualitative_label = "n"

[[record]]
molecule = "Nc1ccc(S(=O)(=O)NC(=O)c2ccccc2)cc1 [SULFABENZAMIDE]"
qualitative_label = "n"

[[record]]
molecule = "CC1(C)S[C@@H]2[C@H](NC(=O)[C@H](N)c3ccc(O)cc3)C(=O)N2[C@H]1C(=O)O [AMOXICILLIN]"
qualitative_label = "n"

[[record]]
molecule = "C[n+]1cccc(C(=O)[O-])c1 [TRIGONELLINE]"
qualitative_label = "n"

[[record]]
molecule = "CO[C@@]12[C@H](COC(N)=O)C3=C(C(=O)C(C)=C(N)C3=O)N1C[C@@H]1N[C@@H]12 [MITOMYCIN C]"
qualitative_label = "n"

[[record]]
molecule = "C[C@]12C=CC(=O)C=C1CC[C@@H]1[C@@H]2[C@@H](O)C[C@@]2(C)[C@H]1CC[C@]2(O)C(=O)COC(=O)CCC(=O)O [PREDNISOLONE HEMISUCCINATE]"
qualitative_label = "y"

[[record]]
molecule = "O=C1c2c(O)cccc2Cc2cccc(O)c21 [ANTHRALIN]"
qualitative_label = "n"

[[record]]
molecule = "O=C(O)c1cccnc1Nc1cccc(C(F)(F)F)c1 [NIFLUMIC ACID]"
qualitative_label = "n"

[[record]]
molecule = "COc1cc2c(cc1OC)[C@@]13CCN4CC5=CCO[C@H]6CC(=O)N2[C@H]1[C@H]6[C@H]5C[C@H]43 [BRUCINE]"
qualitative_label = "n"

[[record]]
molecule = "OCCN1C[C@H](O)[C@@H](O)[C@H](O)[C@H]1CO [MIGLITOL]"
qualitative_label = "n"

[[record]]
molecule = "CC1=C2[C@H]3OC(=O)[C@@H](C)[C@@H]3CC[C@@]2(C)C=CC1=O [SANTONIN]"
qualitative_label = "n"

[[record]]
molecule = "O=C(O)c1ccccc1OP(=O)(O)O [FOSFOSAL]"
qualitative_label = "n"

[[record]]
molecule = "COc1cc(-c2coc3cc(O)c(OC)c(O)c3c2=O)cc(O)c1OC [IRIGENIN]"
qualitative_label = "n"

[[record]]
molecule = "COC(=O)C[C@H]1C(C)(C)C(=O)[C@@H]2CC3C4=CC(=O)O[C@@H](c5ccoc5)[C@]4(C)CCC3[C@@]1(C)C2=O (stereo partly drawn) [CARAPIN]"
qualitative_label = "y"

[[record]]
molecule = "CC(=O)Nc1c(I)c(NC(C)=O)c(I)c(C(=O)O)c1I [DIATRIZOIC ACID]"
qualitative_label = "n"

